# System: Rattus norvegicus
# PROTOCOL DETAILS: Antihyperlipidemic activity in Triton-X-100-induced hyperlipidemia Wistar albino rat model assessed as reduction of total cholesterol level in serum at 250 mg/kg, po qd for 7 days
# Format: functional
METRIC NAME: Activity (mg/dL)
Numbers only here, please. The scale is mg/dL.

{"SMILES REPRESENTATION": "Brc1ccc(/N=C/c2c(-c3ccccc3)nc3sc(-c4ccc5c(c4)OCO5)nn23)cc1", "ENDPOINT UNIT": "mg/dL", "EXPERIMENTAL VALUE": 112.78}
{"SMILES REPRESENTATION": "Cc1cccc(/N=C/c2c(-c3ccc(Cl)cc3)nc3sc(-c4ccc5c(c4)OCO5)nn23)c1", "ENDPOINT UNIT": "mg/dL", "EXPERIMENTAL VALUE": 113.72}
{"SMILES REPRESENTATION": "NS(=O)(=O)c1ccc(/N=C/c2c(-c3ccc(Cl)cc3)nc3sc(-c4ccc5c(c4)OCO5)nn23)cc1", "ENDPOINT UNIT": "mg/dL", "EXPERIMENTAL VALUE": 101.56}
{"SMILES REPRESENTATION": "COc1ccc(/N=C/c2c(-c3ccccc3)nc3sc(-c4ccc5c(c4)OCO5)nn23)cc1", "ENDPOINT UNIT": "mg/dL", "EXPERIMENTAL VALUE": 113.98}

Moving on to another compound below.
-- ask Query (compound): C(=N\c1ccccc1)/c1c(-c2ccccc2)nc2sc(-c3ccc4c(c3)OCO4)nn12 ; field requested: Activity
-- reply 118.23
